Values compiled from patent US7897789B2.

Test system: DBF mice
Assay: Mouse hypercalcemia assay
Settings: oral gavage for 6 days, serum ionized calcium 6 hours after last dosing; Table 1
property_label: Mouse Hypercal

Look over these answered cases.
[
  {
    "compound_smiles": "CCC(CC)(c1ccc(OCC(=O)C(C)(C)C)c(C)c1)c1ccc2sc(C(=O)NCC(=O)O)cc2c1",
    "measurement": "<1000 µg/kg/day"
  },
  {
    "compound_smiles": "CCC(CC)(c1ccc(OCC(=O)C(C)(C)C)c(C)c1)c1cc2ccc(C(=O)O)cc2s1",
    "measurement": ">300 µg/kg/day"
  },
  {
    "compound_smiles": "CCC(CC)(c1ccc(OCC(=O)C(C)(C)C)c(C)c1)c1cc2ccc(C(=O)NCC(=O)O)cc2s1",
    "measurement": ">300 µg/kg/day"
  }
]

Field: next compound
May I ask what Mouse Hypercal has been recorded for "CCC(CC)(c1ccc(OCC(=O)C(C)(C)C)c(C)c1)c1ccc2cc(C(=O)O)sc2c1" ?
<300 µg/kg/day

----------
Biological target: VDR (Homo sapiens, UniProt P11473)
Construct: the receptor expression vector pGal4-VDR-LBD (10 ng); expressed in transfected cells; host or cells: Caco-2 cells
Experiment: Caco-2 cell co-transfection assay (VDR CTF)
Format: cell-based
Details: Caco-2 cells, pGal4-VDR-LBD luciferase co-transfection; Table 1
property_label: EC50 (nM)

Solved cases below.
[
  {
    "compound": "CCC(CC)(c1ccc(OCC(O)C(C)(C)C)c(C)c1)c1cc2ccc(C(=O)O)cc2s1 (centres unmarked) [Ex. 8]",
    "subject_of_test": "VDR (Homo sapiens, UniProt P11473)",
    "endpoint_unit": "nM",
    "measurement": 409
  },
  {
    "compound": "CCC(CC)(c1ccc(OCC(=O)C(C)(C)C)c(C)c1)c1cc2cc(C(=O)N(C)C)ccc2s1 [Ex 21]",
    "subject_of_test": "VDR (Homo sapiens, UniProt P11473)",
    "endpoint_unit": "nM",
    "measurement": 708
  },
  {
    "compound": "CCC(CC)(c1ccc(OCC(O)C(C)(C)C)c(C)c1)c1ccc2sc(C(=O)NCC(=O)O)cc2c1 (centres unmarked) [Ex 16]",
    "subject_of_test": "VDR (Homo sapiens, UniProt P11473)",
    "endpoint_unit": "nM",
    "measurement": 938
  },
  {
    "compound": "CCC(CC)(c1ccc(OCC(O)C(C)(C)C)c(C)c1)c1ccc2cc(C(=O)N(C)C)sc2c1 (centres unmarked) [Ex. 4]",
    "subject_of_test": "VDR (Homo sapiens, UniProt P11473)",
    "endpoint_unit": "nM",
    "measurement": 555
  },
  {
    "compound": "CCC(CC)(c1ccc(OCC(=O)C(C)(C)C)c(C)c1)c1cc2cc(C(=O)O)ccc2s1 [Ex 17]",
    "subject_of_test": "VDR (Homo sapiens, UniProt P11473)",
    "endpoint_unit": "nM",
    "measurement": 631
  },
  {
    "compound": "CCC(CC)(c1ccc(OCC(O)C(C)(C)C)c(C)c1)c1cc2ccc(C(=O)N(C)C)cc2s1 (centres unmarked) [Ex. 10]",
    "subject_of_test": "VDR (Homo sapiens, UniProt P11473)",
    "endpoint_unit": "nM",
    "measurement": 690
  },
  {
    "compound": "CCC(CC)(c1ccc(OCC(=O)C(C)(C)C)c(C)c1)c1ccc2cc(C(=O)O)sc2c1 [Ex. 1]",
    "subject_of_test": "VDR (Homo sapiens, UniProt P11473)",
    "endpoint_unit": "nM",
    "measurement": 432
  },
  {
    "compound": "CCC(CC)(c1ccc(OCC(O)C(C)(C)C)c(C)c1)c1ccc2cc(C(=O)O)sc2c1 (centres unmarked) [Ex. 2]",
    "subject_of_test": "VDR (Homo sapiens, UniProt P11473)",
    "endpoint_unit": "nM",
    "measurement": 411
  },
  {
    "compound": "CCC(O)(CC)COc1ccc(C(CC)(CC)c2cc3ccc(C(=O)O)cc3s2)cc1C [Ex 22]",
    "subject_of_test": "VDR (Homo sapiens, UniProt P11473)",
    "endpoint_unit": "nM",
    "measurement": 1060
  },
  {
    "compound": "CCC(CC)(c1ccc(OCC(=O)C(C)(C)C)c(C)c1)c1ccc2sc(C(=O)O)cc2c1 [Ex. 13]",
    "subject_of_test": "VDR (Homo sapiens, UniProt P11473)",
    "endpoint_unit": "nM",
    "measurement": 994
  }
]

(P) CCC(CC)(c1ccc(OCC(=O)C(C)(C)C)c(C)c1)c1cc2ccc(C(=O)O)cc2s1 [Ex 7]
(Q) CCC(CC)(c1ccc(OCC(O)C(C)(C)C)c(C)c1)c1cc2cc(C(=O)NCC(=O)O)ccc2s1 (centres unmarked) [Ex 20]
(R) CCC(CC)(c1ccc(OCC(=O)C(C)(C)C)c(C)c1)c1cc2ccc(C(=O)N(C)C)cc2s1 [Ex. 9]
Hey, quick one: sort these by EC50, largest value first please. List the labels, following the order given in the request.
R, P, Q

(I) CCC(CC)(c1ccc(OCC(O)C(C)(C)C)c(C)c1)c1ccc2cc(C(=O)NCC(=O)O)sc2c1 (centres unmarked) [Ex. 6]
(II) CCC(CC)(c1ccc(OCC(O)C(C)(C)C)c(C)c1)c1cc2cc(C(=O)O)ccc2s1 (centres unmarked) [Ex 18]
EC50 comparison. Which is larger, I or II ? // return label of chosen record
II
(II: 748 nM, I: 331 nM)

(P) CCC(CC)(c1ccc(OCC(=O)C(C)(C)C)c(C)c1)c1cc2ccc(C(=O)NCC(=O)O)cc2s1 [Ex. 11]
(Q) CCC(CC)(c1ccc(OCC(=O)C(C)(C)C)c(C)c1)c1ccc2cc(C(=O)N(C)C)sc2c1 [Ex. 3]
Quick check, higher EC50 between P and Q ? In your reply, give the label of the chosen option.
Q
(Q: 869 nM, P: 299 nM)

----------
Biological target: VDR (Homo sapiens)
Construct: the receptor expression vector pGal4-VDR-LBD (10 ng); expressed in transfected cells; host or cells: Caco-2 cells
Assay: Caco-2 cell co-transfection assay (VDR CTF)
Assay type: cell-based
Conditions: Caco-2 cells, pGal4-VDR-LBD luciferase co-transfection; Table 1
property_label: EC50 (nM)

[
  {
    "compound": "CCC(CC)(c1ccc(OCC(O)C(C)(C)C)c(C)c1)c1ccc2sc(C(=O)O)cc2c1 (stereo not shown) [Ex 14]",
    "measurement": 941
  }
]

(P) CCC(CC)(c1ccc(OCC(=O)C(C)(C)C)c(C)c1)c1cc2cc(C(=O)NCC(=O)O)ccc2s1 [Ex 19]
(Q) CCC(CC)(c1ccc(OCC(O)C(C)(C)C)c(C)c1)c1cc2ccc(C(=O)NCC(=O)O)cc2s1 (stereo not shown) [Ex. 12]
(R) CCC(CC)(c1ccc(OCC(=O)C(C)(C)C)c(C)c1)c1ccc2cc(C(=O)NCC(=O)O)sc2c1 [Ex. 5]
Falling order of EC50, please. Dear reader, please state the labels in the requested order.
P, R, Q

----------
Tested on: rat osteocalcin promoter
Experiment: OCN (osteocalcin) promoter assay
Format: cell-based
Details: Rattus norvegicus, RG-15 (ROS 17/2.8) cells; comparison compounds, Table 3
pEC50: −log10 of the molar value.
property_label: pEC50

(A) CCC(CC)(c1ccc(OCC(=O)C(C)(C)C)c(C)c1)c1ccc(OCC(=O)C(C)(C)C)c(C)c1 [DD, reference compound]
(B) CCC(CC)(c1ccc(OCC(=O)C(C)(C)C)c(C)c1)c1ccc(OC[C@H](O)C(C)(C)C)c(C)c1 [EE, reference compound]
(C) CCC(CC)(c1ccc(OCC(O)CO)c(C)c1)c1ccc(OCC(O)C(C)(C)C)c(C)c1 (stereo not drawn) [BB, reference compound]
List these items ordered by pEC50, big to small. Write out the labels following the order that was asked for.
C, A, B

----------
Molecular target: RXR-VDR heterodimer (Homo sapiens)
Construct: Add the Gal4-RXR-DEF and VP16-VDR-LBD
Sequence (P11473 127-423 limits assumed): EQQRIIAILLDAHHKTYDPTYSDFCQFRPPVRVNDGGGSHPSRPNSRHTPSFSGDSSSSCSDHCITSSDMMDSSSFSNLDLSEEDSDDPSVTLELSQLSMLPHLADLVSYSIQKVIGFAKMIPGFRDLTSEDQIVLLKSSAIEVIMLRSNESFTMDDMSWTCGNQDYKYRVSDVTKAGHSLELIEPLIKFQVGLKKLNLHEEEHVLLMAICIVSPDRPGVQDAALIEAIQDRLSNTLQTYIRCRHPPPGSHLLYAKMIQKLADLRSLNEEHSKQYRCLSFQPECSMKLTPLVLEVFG
Sequence (P19793 201-462 partner limits assumed): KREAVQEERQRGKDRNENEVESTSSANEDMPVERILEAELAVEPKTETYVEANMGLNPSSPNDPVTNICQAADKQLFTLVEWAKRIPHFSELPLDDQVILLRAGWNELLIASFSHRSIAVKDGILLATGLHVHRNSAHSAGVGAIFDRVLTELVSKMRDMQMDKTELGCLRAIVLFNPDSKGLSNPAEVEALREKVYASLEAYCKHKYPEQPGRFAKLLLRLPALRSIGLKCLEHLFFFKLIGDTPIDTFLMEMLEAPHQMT
Test: RXR-VDR heterodimerization assay (SaOS-2 cells)
Conditions: Gal4-RXR / VP16-VDR-LBD luciferase reporter, Table 1
property_label: EC50 (nM)

[
  {
    "molecule": "CCC(CC)(c1ccc(OCC(O)C(C)(C)C)c(C)c1)c1cc2cc(C(=O)NCC(=O)O)ccc2s1 (centres unmarked) [Ex 20]",
    "endpoint_unit": "nM",
    "EC50": 24
  }
]

(P) CCC(CC)(c1ccc(OCC(=O)C(C)(C)C)c(C)c1)c1cc2ccc(C(=O)NCC(=O)O)cc2s1 [Ex. 11]
(Q) CCC(CC)(c1ccc(OCC(=O)C(C)(C)C)c(C)c1)c1cc2cc(OS(C)(=O)=O)ccc2s1 [Ex 24]
(R) CCC(CC)(c1ccc(OCC(O)C(C)(C)C)c(C)c1)c1ccc2cc(C(=O)O)sc2c1 (centres unmarked) [Ex. 2]
(S) CCC(CC)(c1ccc(OCC(O)C(C)(C)C)c(C)c1)c1cc2ccc(C(=O)N(C)C)cc2s1 (centres unmarked) [Ex. 10]
Arrange the 4 molecules by rising EC50, starting with the smallest. State the ranking by listing the labels in the requested order.
R, P, S, Q
(R: 30 nM, P: 45 nM, S: 323 nM, Q: 695 nM)
